Reported MEC to Induce Cytokine IFN-gamma values for a set of compounds
Test system: Human peripheral blood mononuclear cells (PBMC)
TEST_NAME: Cytokine Induction in Human Cells (PBMC)
Format: cell-based
EXPERIMENTAL_PARAMETERS: 21-24 hours culture, lowest concentration giving cytokine at least 2× negative control, multiplex bead assay
Give just the numeric value; µM need not be written.

Reported MEC to Induce Cytokine IFN-gamma ( CCCCC(CC)COc1ccc(C[C@@H](COCC)n2cnc3c(N)nc4ccccc4c32)cc1 (stereo partly drawn) [Example 5] ) = 0.04

Reported MEC to Induce Cytokine IFN-gamma ( CCCCCCCCCCCCOc1ccc(C[C@@H](COCC)n2cnc3c(N)nc4ccccc4c32)cc1 [Example 1] ) = 10

Reported MEC to Induce Cytokine IFN-gamma ( CCCCCCCCOc1ccc(C[C@@H](COCC)n2cnc3c(N)nc4ccccc4c32)cc1 [Example 2] ) = 0.37
